- ASSAY_PROCEDURE: activity coefficient (dimensionless); of the first substance listed, at infinite dilution; xn = mol fraction of the nth substance listed
- EXPERIMENTAL_SETUP: 363.2 K; 101 kPa; Liquid; Chromatography; x1 = 0
Binning of activity coefficient into classes: range A = under 10, range B = from 10 up to 30, range C = 30 and over

Field: example entries. Status: answers known.
MOLECULE	CLASS_ASSIGNMENT
CCCCCCCC [octane] + OCCOCCO	range C
CCCCCCCC [octane] + OCCOCCOCCO	range C
C1CCCCC1 [cyclohexane] + OCCOCCO	range C
CCO [ethanol] + OCCOCCO	range A
C#CCCCCCC [1-octyne] + OCCOCCOCCO	range B
C1CCCC1 [cyclopentane] + OCCOCCO	range B
CCCCC [pentane] + OCCOCCO	range C
C#CCCCC [1-hexyne] + OCCOCCO	range B
C1CCCCCC1 [cycloheptane] + OCCOCCOCCO	range B
CCc1ccccc1 [ethylbenzene] + OCCOCCOCCO	range A

GET /class?item= C=CCCCCC [1-heptene] + OCCOCCO
range C
